Consider the following molecules; for each one, report its Activity (relative to RLuc) native.
- assay-method-text: Luciferase activity of purified RLuc mutants (light output integrated over 10 s, luminometer)
- Assay type: biochemical
- assay-setup: native coelenterazine; relative to native enzyme
- Procedure: Luminometer Calibration: Light measurements were made using a Turner 20/20 and later a Turner 20/20n luminometer (Turner Designs, Sunnyvale, Calif.). […] Characterization of Renilla Luciferase Mutants: Luciferase activity was measured by adding 1 μl of sample (diluted as necessary in EB containing 1% HSA) to 100 μl room temperature 100 mM sodium phosphate buffer (pH 7), manually adding 1 μl of 0.5 μg/μl coelenterazine or analog, manually mixing, and reading for 10 s in a luminometer. […]
Give bare numbers.

Worked examples, 3 molecules total:
molecule: C124A/G229E: RLuc mutant C124A/G229E (protein) MASKVYDPEQRKRMITGPQWWARCKQMNVLDSFINYYDSEKHAENAVIFLHGNAASSYLWRHVVPHIEPVARCIIPDLIGMGKSGKSGNGSYRLLDHYKYLTAWFELLNLPKKIIFVGHDWGAALAFHYSYEHQDKIKAIVHAESVVDVIESWDEWPDIEEDIALIKSEEGEKMVLENNFFVETMLPSKIMRKLEPEEFAAYLEPFKEKGEVRRPTLSWPREIPLVKGEKPDVVQIVRNYNAYLRASDDLPKMFIESDPGFFSNAIVEGAKKFPNTEFVKVKGLHFSQEDAPDEMGKYIKSFVERVLKNEQ
Activity (relative to RLuc) native: 0.02
//
molecule: C124A/M295I: RLuc mutant C124A/M295I (protein) MASKVYDPEQRKRMITGPQWWARCKQMNVLDSFINYYDSEKHAENAVIFLHGNAASSYLWRHVVPHIEPVARCIIPDLIGMGKSGKSGNGSYRLLDHYKYLTAWFELLNLPKKIIFVGHDWGAALAFHYSYEHQDKIKAIVHAESVVDVIESWDEWPDIEEDIALIKSEEGEKMVLENNFFVETMLPSKIMRKLEPEEFAAYLEPFKEKGEVRRPTLSWPREIPLVKGGKPDVVQIVRNYNAYLRASDDLPKMFIESDPGFFSNAIVEGAKKFPNTEFVKVKGLHFSQEDAPDEIGKYIKSFVERVLKNEQ
Activity (relative to RLuc) native: 1.0
//
molecule: C124A/F180A: RLuc mutant C124A/F180A (protein) MASKVYDPEQRKRMITGPQWWARCKQMNVLDSFINYYDSEKHAENAVIFLHGNAASSYLWRHVVPHIEPVARCIIPDLIGMGKSGKSGNGSYRLLDHYKYLTAWFELLNLPKKIIFVGHDWGAALAFHYSYEHQDKIKAIVHAESVVDVIESWDEWPDIEEDIALIKSEEGEKMVLENNAFVETMLPSKIMRKLEPEEFAAYLEPFKEKGEVRRPTLSWPREIPLVKGGKPDVVQIVRNYNAYLRASDDLPKMFIESDPGFFSNAIVEGAKKFPNTEFVKVKGLHFSQEDAPDEMGKYIKSFVERVLKNEQ
Activity (relative to RLuc) native: 0.02

Lab note: next molecule to report on.
Lookup result for C124A/F199M: RLuc mutant C124A/F199M (protein) MASKVYDPEQRKRMITGPQWWARCKQMNVLDSFINYYDSEKHAENAVIFLHGNAASSYLWRHVVPHIEPVARCIIPDLIGMGKSGKSGNGSYRLLDHYKYLTAWFELLNLPKKIIFVGHDWGAALAFHYSYEHQDKIKAIVHAESVVDVIESWDEWPDIEEDIALIKSEEGEKMVLENNFFVETMLPSKIMRKLEPEEMAAYLEPFKEKGEVRRPTLSWPREIPLVKGGKPDVVQIVRNYNAYLRASDDLPKMFIESDPGFFSNAIVEGAKKFPNTEFVKVKGLHFSQEDAPDEMGKYIKSFVERVLKNEQ ; measured Activity (relative to RLuc) native: 0.58
